tested_system: PfRH5 from Plasmodium falciparum strain W2-mef (Plasmodium falciparum)
assay_text: cell-based or functional assay
metric: Max growth inhibition (%)
Unit % implied. Number only.

binder	Max growth inhibition (%)
H1H29089P (antibody, V domains shown) VH: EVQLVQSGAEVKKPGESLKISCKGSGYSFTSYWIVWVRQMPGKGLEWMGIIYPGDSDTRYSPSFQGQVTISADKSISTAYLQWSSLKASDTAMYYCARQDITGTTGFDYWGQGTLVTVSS VL: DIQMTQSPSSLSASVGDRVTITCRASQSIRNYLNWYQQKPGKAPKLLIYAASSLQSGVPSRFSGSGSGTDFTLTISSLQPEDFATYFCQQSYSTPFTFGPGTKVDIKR	66.4

If you can, please state the reported Max growth inhibition (%) value of H1H29100P (antibody, V domains shown) VH: QLQLQESGPGLVKPSETLSLTCTVSGGSISSSSYYWGWIRQPPGKGLEWIGIIYYSGSTYYNPSLKSRVTISVDTSKNQFSLKLSSVTAADTAVYYCARQDREALFDYWGQGTLVTVSS VL: EIVLTQSPDFQSVTPKEKVTITCRASQRIGSSLHWYQQKPDQSPKLLIKYASQSFSGVPSRFSGSGSGTDFTLTINSLEAEDAATYYCHQSSTLPTFGQGTRLEIKR .
67.3

Data origin, for the record: patent US20210024625A1
